biological target: T1, FcRn-p3 fusion protein (human, UniProt P55899 24-297; P61769 21-119); assay: phage ELISA pH6 (est.)
T1 construct: baculovirus expressed; coated on ELISA wells; not shown: amino terminal part of bacteriophage p3 protein and CVDE protein
T1 sequence (P55899 24-297, chain 1 of 2): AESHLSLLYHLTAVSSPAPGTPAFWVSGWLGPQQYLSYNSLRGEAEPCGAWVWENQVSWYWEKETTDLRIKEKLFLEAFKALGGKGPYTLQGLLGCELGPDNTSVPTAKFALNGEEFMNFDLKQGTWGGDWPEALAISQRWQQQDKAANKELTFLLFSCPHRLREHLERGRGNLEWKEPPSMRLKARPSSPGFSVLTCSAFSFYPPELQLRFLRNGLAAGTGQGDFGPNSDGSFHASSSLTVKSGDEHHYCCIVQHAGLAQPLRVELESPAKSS
T1 sequence (P61769 21-119, chain 2 of 2): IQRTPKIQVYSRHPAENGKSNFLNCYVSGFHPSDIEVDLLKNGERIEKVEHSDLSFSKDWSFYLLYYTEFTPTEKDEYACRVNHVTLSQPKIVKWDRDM
Listing: Ratio/FWT of selected binders
Answer in fold, number only, no unit symbol.

binder: T3A_16 (other, EU numbering) CPPCPAPELLGGPSVLLFPPKPKDTLMISRTPEVTCVVEDVSHEDPEVKFNWYVDGVEVHNAKTKPREEQYNSTYRVVSVLPVLHQDWLNGKEYKCKVSNKALPAPIEKTISKAKGQPREPQVYTLPPSRDELTKNQVSLTCLVKGFYPSDIVVEWESNGQPENNYKTTPPVLDSDGSFFLYSKLTVDKSRWQQGNVFSCSVMHEALHNHYTQKSLSLSPGK
recordedMeasurement: 7.4

Kindly review the next binder as well.
Value lookup for Ratio/FWT; key = C4A_45 (other, EU numbering) CPPCPAPELLGGPSVFLFPPRPKDTLMISRTPEVTCVVVDVSHEDPEVKFNWYVDGVEVYNAKTKPREEQYNSTYRVVSVLTVLHQDWLDGKEYKCKVSNKALPVPIEKTISKAKGQPREPQVYTLPPSRDELTKNQVSLTCLVKGFYPSDIAVEWESNGQPENNYKTTPPVLDSDGSFFLYSKLTVDKSRWQQGNVFSCSVMHEALHYHYTQKSLSLSPGK
7.2
